Before we begin, note that these Ki values for Substance-K receptor (Homo sapiens) originate from several publications.
# satisfied = Ki below 2 nM (exclusive); not satisfied = Ki at/above 2 nM

Study these solved cases before continuing.
MOLECULE	TARGET OR TEST SYSTEM	CLASS LABEL
Cc1ccc(-c2nnc3n2CCN(C(=O)c2ccc(F)cc2)[C@@H]3C)o1	Substance-K receptor (Homo sapiens)	not satisfied
O=C1CC[C@](CCN2CC(N3CCC(O)CC3)C2)(c2ccc(Cl)c(Cl)c2)CN1c1ccccn1	Substance-K receptor (Homo sapiens)	not satisfied
Cc1nsc(-c2nnc3n2CCN(C(=O)c2ccc(Cl)c(F)c2)C3C)n1 (racemic)	Substance-K receptor (Homo sapiens)	not satisfied
CON=C(CN(C)C(=O)c1cc(Cl)cc(Cl)c1)C(CCN1CCC(N2C(=O)c3ccccc3C2C)CC1)c1ccc(Cl)c(Cl)c1 (stereo not drawn)	Substance-K receptor (Homo sapiens)	not satisfied

Input line: Strictly below 2 nM in Ki? Cc1ccc(-c2nnc3n2CCN(C(=O)c2ccc(Cl)c(F)c2)[C@@H]3C)o1
Output line: not satisfied

Input line: Now the molecule Cc1nsc(-c2nnc3n2CCN(C(=O)c2cc(F)c(F)c(F)c2F)[C@@H]3C)n1
Output line: not satisfied

====

Before we begin, note that these pKi values for Substance-K receptor (Homo sapiens) originate from several publications.
pKi: −log10 of the molar value.
Could you label it satisfied if measured pKi is 6 or higher, and not satisfied otherwise?

COMPOUND	CLASS LABEL
O=C(NC1(C(=O)N[C@H](Cc2ccccc2)C(=O)NCCCN2CCOCC2)CCCC1)c1cc2ccc(Br)cc2s1	satisfied
C[C@@H]1c2nnc(-c3nc(C(C)(F)F)no3)n2CCN1C(=O)c1ccc(F)cc1	not satisfied
Cc1ccc2oc(C(=O)NC3(C(=O)N[C@H](Cc4ccccc4)C(=O)NCC4CCN(CC5CCOCC5)CC4)CCCC3)cc2c1	satisfied
Cc1nsc(-c2nnc3n2CCN(C(=O)c2cc(F)c(F)c(F)c2)C3)n1	not satisfied

Input line: Tell me whether pKi is at least 6 here: Cc1ccc2c(c1)cc(C(=O)NC1(C(=O)N[C@H](Cc3ccccc3)C(=O)NCCCN3CCOCC3)CCCC1)n2C
Output line: satisfied

Input line: Now the compound Cc1nsc(-c2nnc3n2CCN(C(=O)c2ccc(C(F)(F)F)cc2)[C@@H]3C)n1
Output line: not satisfied

Input line: Now the compound Cc1nsc(-c2nnc3n2CCN(C(=O)c2ccc(F)c(Cl)c2)C3C)n1 (racemic)
Output line: not satisfied

====

Before we begin, note that these Ki values for Substance-K receptor (Homo sapiens, UniProt P21452) originate from several publications.
# rule met = Ki below 1 nM (exclusive); rule not met = Ki at/above 1 nM

Study these solved cases before continuing.
COMPOUND	TARGET OR TEST SYSTEM	CLASS LABEL
O=C1C[C@@H](NC(=O)CN2CCC(N3CCOCC3)CC2)C(=O)NC[C@@H](Cc2ccccc2)NC(=O)[C@H](Cc2ccccc2)NC(=O)[C@H](Cc2c[nH]c3ccccc23)N1	Substance-K receptor (Homo sapiens, UniProt P21452)	rule met
CCN(CC)c1ccc2cc(C(=O)NC3(C(=O)N[C@H](Cc4ccccc4)C(=O)NCC4CCN(CC5CCOCC5)CC4)CCCC3)oc2c1	Substance-K receptor (Homo sapiens, UniProt P21452)	rule met
Cc1ccc(C=CC(=O)NC2(C(=O)NC(Cc3ccccc3)C(=O)NC3CCC(CN4CCOCC4)C3)CCc3ccccc32)cc1 (mixture of isomers)	Substance-K receptor (Homo sapiens, UniProt P21452)	rule met
C[C@@H]1c2nnc(-c3nc(C(F)F)ns3)n2CCN1C(=O)c1ccc(F)cc1	Substance-K receptor (Homo sapiens, UniProt P21452)	rule not met
CCc1noc(-c2nnc3n2CCN(C(=O)c2ccc(F)cc2)[C@@H]3C)n1	Substance-K receptor (Homo sapiens, UniProt P21452)	rule not met

Input line: Strictly below 1 nM in Ki? Cc1nc(-c2nnc3n2CCN(C(=O)c2ccc(F)cc2)[C@@H]3C)cs1
Output line: rule not met

Input line: Now the compound Cc1cccc(N2CC(CCN3CC(N4CCC(=O)CC4)C3)(c3ccc(Cl)c(Cl)c3)CCC2=O)n1 (centres unmarked)
Output line: rule not met

Input line: Now the compound O=C(NC1(C(=O)N[C@H](Cc2ccccc2)C(=O)NCC2CCN(CC3CCOCC3)CC2)CCCC1)c1cc2ccc(Br)cc2o1
Output line: rule met

Input line: Now the compound O=C(NC1(C(=O)N[C@H](Cc2ccccc2)C(=O)NCC2CCN(CC3CCOCC3)CC2)CCCC1)c1cc2cccc(I)c2s1
Output line: rule met

Input line: Now the compound O=C1CCC(CCN2CC(N3CCC(F)CC3)C2)(c2ccc(Cl)c(Cl)c2)CN1CCC1CC1 (centres unmarked)
Output line: rule not met

Input line: Now the compound C[C@](Cc1ccccc1)(NC(=O)c1cc2ccccc2s1)C(=O)N[C@H](Cc1ccccc1)C(=O)NCCCN1CCOCC1
Output line: rule not met

Input line: Now the compound N[C@@H]1CCCC[C@@H]1NC(=O)C1CCCC(NC(=O)[C@@H](Cc2ccccc2)NC(=O)C2(NC(=O)c3cc4ccccc4s3)CCCC2)C1 (some centres unmarked)
Output line: rule met
